test-target: TGF-beta receptor type-2 (Homo sapiens)
Sequence (P37173 whole entry): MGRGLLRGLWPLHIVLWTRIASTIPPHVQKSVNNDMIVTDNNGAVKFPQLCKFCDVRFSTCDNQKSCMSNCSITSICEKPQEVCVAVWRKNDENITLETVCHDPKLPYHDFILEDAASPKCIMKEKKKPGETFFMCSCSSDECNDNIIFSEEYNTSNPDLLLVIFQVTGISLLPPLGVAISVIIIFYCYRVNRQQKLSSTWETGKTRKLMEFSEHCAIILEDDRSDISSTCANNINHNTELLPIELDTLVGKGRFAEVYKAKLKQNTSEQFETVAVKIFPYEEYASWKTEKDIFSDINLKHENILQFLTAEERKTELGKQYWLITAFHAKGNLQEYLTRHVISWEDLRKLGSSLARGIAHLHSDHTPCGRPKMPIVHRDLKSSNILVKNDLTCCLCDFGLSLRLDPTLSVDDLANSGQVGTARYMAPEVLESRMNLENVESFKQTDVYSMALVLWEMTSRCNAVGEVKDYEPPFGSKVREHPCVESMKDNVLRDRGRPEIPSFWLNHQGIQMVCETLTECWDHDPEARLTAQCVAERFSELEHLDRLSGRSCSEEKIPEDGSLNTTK
assay-summary: Inhibition of TGBR2 signaling in human HEK293T cells assessed as inhibition of SMAD activation after 2 to 22 hrs by dual Luciferase Assay
pIC50: −log10 of the molar value.

[
  {
    "compound": "CCOC(=O)C1=C(C)NC2=C(C(=O)CC(C)(C)C2)C1c1ccc(-c2ccccc2)cc1 (stereo in doubt; (+)1)",
    "pIC50": 6.34
  },
  {
    "compound": "CCOC(=O)C1=C(C)NC2=C(C(=O)CC(C)(C)C2)C1c1ccc(-c2ccccc2)cc1 (racemic)",
    "pIC50": 6.07
  },
  {
    "compound": "CCOC(=O)C1=C(C)NC2=C(C(=O)CC(C)(C)C2)C1c1ccc(-c2ccccc2)cc1 (stereo in doubt; (-)1)",
    "pIC50": 5.16
  }
]
